- System: velvetleaf (Abutilon theophrasti, ABUTH)
- method: Pre-emerge test, greenhouse herbicide activity screening
- Format: in vivo
- condition: pre-emerge, 63 g ai/ha, 14 days after application, scale 0-100
measure_name: phytotoxicity rating ABUTH

{"item_smiles": "COc1c(Cl)cc(F)c(-n2c(=O)cc(C(F)(F)F)n(C)c2=O)c1NC(=O)C=Cc1ccccc1[N+](=O)[O-]", "quantitative_readout": 100}
{"item_smiles": "COc1c(Cl)cc(F)c(-n2c(=O)cc(C(F)(F)F)n(C)c2=O)c1NC(=O)c1cc2ccccc2cc1C", "quantitative_readout": 100}
{"item_smiles": "COc1c(Br)cc(F)c(-n2c(=O)cc(C(F)(F)F)n(C)c2=O)c1N(C(=O)C=Cc1ccccc1)C(=O)C=Cc1ccccc1", "quantitative_readout": 0}
{"item_smiles": "Cn1c(C(F)(F)F)cc(=O)n(-c2ccc(Cl)cc2NC(=O)C=Cc2ccccc2)c1=O", "quantitative_readout": 80}
{"item_smiles": "COc1c(Cl)cc(F)c(-n2c(=O)cc(C(F)(F)F)n(C)c2=O)c1NC(=O)C(C#N)=Cc1ccccc1", "quantitative_readout": 80}

---

- Test system: green foxtail (Setaria viridis, SETVI)
- method: Pre-emerge test, greenhouse herbicide activity screening
- Format: in vivo
- condition: 250 g ai/ha; rating scale 0-100, 14 days after application
// Pre-emerge herbicidal activity, phytotoxicity rating SETVI lookup, one value per entry
measure_name: Pre-emerge herbicidal activity, phytotoxicity rating SETVI

{"molecule": "COc1c(Cl)cc(F)c(-n2c(=O)cc(C(F)(F)F)n(C)c2=O)c1CC(Cl)C(=O)OCC(F)(F)F (stereo not shown)", "experimental_target": "green foxtail (Setaria viridis, SETVI)", "quantitative_readout": 0}
{"molecule": "CCCCCOC(=O)C(Cl)Cc1c(OC)c(Cl)cc(F)c1-n1c(=O)cc(C(F)(F)F)n(C)c1=O (single isomer, unassigned)", "experimental_target": "green foxtail (Setaria viridis, SETVI)", "quantitative_readout": 0}
{"molecule": "COc1c(Cl)cc(F)c(-n2c(=O)cc(C(F)(F)F)n(C)c2=O)c1CC(C)(Cl)C(=O)OC(C)C (stereo not shown)", "experimental_target": "green foxtail (Setaria viridis, SETVI)", "quantitative_readout": 100}
{"molecule": "Nc1c(O)c(Cl)cc(F)c1N1C(=O)C2CCCCN2C1=S (single isomer, unassigned) [12-2]", "experimental_target": "green foxtail (Setaria viridis, SETVI)", "quantitative_readout": 100}

---

- Test system: barnyardgrass (Echinochloa crus-galli, ECHCG)
- method: Pre-emerge test, greenhouse herbicide activity screening
- Assay type: in vivo
- condition: 63 g ai/ha; phytotoxicity rating 0-100, 14 days after application
Pre-emerge Herbicidal Activity ECHCG reference

{"item_smiles": "COc1c(Cl)cc(F)c(-n2c(=O)cc(C(F)(F)F)n(C)c2=O)c1NC(=O)OCc1cc(F)ccc1F", "Pre-emerge Herbicidal Activity ECHCG": 60}
{"item_smiles": "COc1c(Cl)cc(F)c(-n2c(=O)cc(C(F)(F)F)n(C)c2=O)c1NC(=O)OCc1c(F)c(F)c(F)c(F)c1F", "Pre-emerge Herbicidal Activity ECHCG": 50}
{"item_smiles": "CC(C)Oc1c(Cl)cc(F)c(-n2c(=O)cc(C(F)(F)F)n(C)c2=O)c1NC(=O)c1ccc2ccccc2c1", "Pre-emerge Herbicidal Activity ECHCG": 0}
{"item_smiles": "Cn1c(C(F)(F)F)cc(=O)n(-c2c(F)cc(Cl)c(O)c2NC(=O)c2ccc3ccccc3c2)c1=O", "Pre-emerge Herbicidal Activity ECHCG": 0}
{"item_smiles": "COc1c(Cl)cc(F)c(-n2c(=O)cc(C(F)(F)F)n(C)c2=O)c1NC(=O)OCc1ccc(C(C)C)cc1", "Pre-emerge Herbicidal Activity ECHCG": 0}
{"item_smiles": "CCc1ccc(COC(=O)Nc2c(OC)c(Cl)cc(F)c2-n2c(=O)cc(C(F)(F)F)n(C)c2=O)cc1", "Pre-emerge Herbicidal Activity ECHCG": 10}
{"item_smiles": "COc1c(Cl)cc(F)c(-n2c(=O)cc(C(F)(F)F)n(C)c2=O)c1NC(=O)OCc1ccc(C(F)(F)F)cc1", "Pre-emerge Herbicidal Activity ECHCG": 0}

---

- Tested on: sicklepod (Cassia obtusifolia, CASOB)
- method: Post-emerge test, greenhouse herbicide activity screening
- Assay type: in vivo
- condition: 250 g ai/ha; phytotoxicity rating 0-100 (0 no damage, 100 complete death), 14 days after application
Each entry below lists one item and its recorded Post-emerge Herbicidal Activity CASOB value.

{"item_smiles": "COc1c(Cl)cc(F)c(-n2c(=O)c(NC(=O)C(F)(F)F)c(C(F)(F)F)n(C)c2=O)c1NC(=O)C(F)(F)F", "Post-emerge Herbicidal Activity CASOB": 0}
{"item_smiles": "COc1c(Cl)cc(F)c(-n2c(=O)cc(C(F)(F)F)n(C)c2=O)c1N(C(=O)C=C(C)C)C(=O)C=C(C)C", "Post-emerge Herbicidal Activity CASOB": 0}
{"item_smiles": "Cn1c(C(F)(F)F)cc(=O)n(-c2c(F)cc(Cl)c(OC3CCCC3)c2N)c1=O", "Post-emerge Herbicidal Activity CASOB": 30}
{"item_smiles": "COc1c(Cl)cc(F)c(-n2c(=O)cc(C(F)(F)F)n(C)c2=O)c1NC(=O)c1ccc(C)c(C)c1", "Post-emerge Herbicidal Activity CASOB": 100}

---

- System: velvetleaf (Abutilon theophrasti, ABUTH)
- method: Post-emerge test, greenhouse herbicide activity screening
- Format: in vivo
- condition: post-emerge, 63 g ai/ha, 14 days after application, rating scale 0-100
Some compounds, each annotated with its measured phytotoxicity rating ABUTH.

{"compound": "COc1c(Cl)cc(F)c(-n2c(=O)cc(C(F)(F)F)n(C)c2=O)c1NC(=O)COc1ccccc1 [2-119]", "phytotoxicity rating ABUTH": 100}
{"compound": "Cn1c(C(F)(F)F)cc(=O)n(-c2c(F)cc(Cl)c(OC(F)F)c2NC(=O)c2ccc3ccccc3c2)c1=O [Compound 2-115]", "phytotoxicity rating ABUTH": 100}
{"compound": "COc1c(Cl)cc(F)c(-n2c(=O)cc(C(F)(F)F)n(C)c2=O)c1NC(=O)OCc1ccc(C(C)C)cc1 [4-42]", "phytotoxicity rating ABUTH": 100}
{"compound": "COc1c(Cl)cc(F)c(-n2c(=O)cc(C(F)(F)F)n(C)c2=O)c1NC(=O)CCc1ccccc1 [2-86]", "phytotoxicity rating ABUTH": 100}
{"compound": "Cc1c(Cl)cc(F)c(-n2c(=O)cc(C(F)(F)F)n(C)c2=O)c1NC(=O)OCCc1ccccc1 [4-57]", "phytotoxicity rating ABUTH": 100}
{"compound": "Cc1c(Cl)cc(F)c(-n2c(=O)cc(C(F)(F)F)n(C)c2=O)c1NC(=O)OCc1ccccc1Cl [4-54]", "phytotoxicity rating ABUTH": 100}
{"compound": "COc1c(Cl)cc(F)c(-n2c(=O)cc(C(F)(F)F)n(C)c2=O)c1NC(=O)OCc1ccccc1C(F)(F)F [4-33]", "phytotoxicity rating ABUTH": 100}

---

- System: velvetleaf (Abutilon theophrasti, ABUTH)
- method: Pre-emerge test, greenhouse herbicide activity screening
- Format: in vivo
- condition: 63 g ai/ha; phytotoxicity rating 0-100, 14 days after application
Threshold 90: Pre-emerge Herbicidal Activity ABUTH strictly smaller gives yes (1), otherwise no (0).

{"item_smiles": "COc1c(Cl)cc(F)c(-n2c(=O)cc(C(F)(F)F)n(C)c2=O)c1NC(=O)OCc1ccc(C(C)C)cc1", "assigned_class": "yes (1)"}
{"item_smiles": "COc1c(Cl)cc(F)c(-n2c(=O)cc(C(F)(F)F)n(C)c2=O)c1NC(=O)NCc1ccccc1", "assigned_class": "no (0)"}
{"item_smiles": "COc1c(Cl)cc(F)c(-n2c(=O)cc(C(F)(F)F)n(C)c2=O)c1NC(=O)OCc1ccc(Cl)c(Cl)c1", "assigned_class": "yes (1)"}
{"item_smiles": "COc1c(Cl)ccc(-n2c(=O)cc(C(F)(F)F)n(C)c2=O)c1NC(=O)c1ccc2ccccc2c1", "assigned_class": "no (0)"}
{"item_smiles": "COc1ccc(COC(=O)Nc2c(OC)c(Cl)cc(F)c2-n2c(=O)cc(C(F)(F)F)n(C)c2=O)cc1", "assigned_class": "no (0)"}
{"item_smiles": "Cn1c(C(F)(F)F)cc(=O)n(-c2c(F)cc(Cl)c(Oc3ncccc3[N+](=O)[O-])c2NC(=O)c2ccc3ccccc3c2)c1=O", "assigned_class": "no (0)"}
{"item_smiles": "Cn1c(C(F)(F)F)cc(=O)n(-c2ccc(Cl)cc2NC(=O)C2CC2)c1=O", "assigned_class": "no (0)"}
{"item_smiles": "COC(=O)N(C(=O)OC)c1c(OC)c(Cl)cc(F)c1-n1c(=O)cc(C(F)(F)F)n(C)c1=O", "assigned_class": "no (0)"}
{"item_smiles": "COc1c(Cl)cc(F)c(-n2c(=O)cc(C(F)(F)F)n(C)c2=O)c1NC(=O)Nc1ccccc1", "assigned_class": "yes (1)"}
{"item_smiles": "Cc1ccc(-n2c(=O)cc(C(F)(F)F)n(C)c2=O)c(NC(=O)c2ccc3ccccc3c2)c1", "assigned_class": "no (0)"}
{"item_smiles": "Cn1c(C(F)(F)F)cc(=O)n(-c2c(F)cc(Cl)c(OCC#N)c2NC(=O)OCc2ccccc2)c1=O", "assigned_class": "no (0)"}
{"item_smiles": "COc1c(Cl)cc(F)c(-n2c(=O)cc(C(F)(F)F)n(C)c2=O)c1NC(=O)OCc1ccc(C(F)(F)F)cc1", "assigned_class": "yes (1)"}
{"item_smiles": "Cn1c(C(F)(F)F)cc(=O)n(-c2ccc(OC(F)(F)F)cc2NC(=O)c2ccc3ccccc3c2)c1=O", "assigned_class": "yes (1)"}
